B1: KRT13 (parent)
chain: TSSASVTTTSNASGRRTSDVRRP

variants of: B1; assay: protein stability index of a GFP-peptide fusion (GPS, HEK-293T) (PSI 1-6); higher = more stable; details: c terminus: native;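 note: lentivirally expressed fusions sorted by FACS into six bins by GFP to DsRed ratio, PSI derived from sequencing read proportions per bin multiplied by bin number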
Use 3 as the dividing line for protein stability index, with the line itself on the Fulfilled side and lower values as Not fulfilled.

R21L: Fulfilled
S2T: Not fulfilled
P23Q: Fulfilled
V6L: Not fulfilled

Req: Does "R21P" have a reported protein stability index of at least 3?
Resp: Fulfilled

Req: Does "A4W" have a reported protein stability index of at least 3?
Resp: Not fulfilled

Req: Does "S3C" have a reported protein stability index of at least 3?
Resp: Not fulfilled

Req: Does "P23E" have a reported protein stability index of at least 3?
Resp: Not fulfilled

Req: Does "T7H" have a reported protein stability index of at least 3?
Resp: Not fulfilled

Req: Does "A12I" have a reported protein stability index of at least 3?
Resp: Not fulfilled

Req: Does "S5C" have a reported protein stability index of at least 3?
Resp: Fulfilled
